Biological target: human OX2R (Homo sapiens)
Construct: expressed in transfected cells; host or cells: CHO (Chinese hamster ovary) cells, line CHOOX2R, co-expressing NFAT-luciferase
Sequence (O43614 1-444): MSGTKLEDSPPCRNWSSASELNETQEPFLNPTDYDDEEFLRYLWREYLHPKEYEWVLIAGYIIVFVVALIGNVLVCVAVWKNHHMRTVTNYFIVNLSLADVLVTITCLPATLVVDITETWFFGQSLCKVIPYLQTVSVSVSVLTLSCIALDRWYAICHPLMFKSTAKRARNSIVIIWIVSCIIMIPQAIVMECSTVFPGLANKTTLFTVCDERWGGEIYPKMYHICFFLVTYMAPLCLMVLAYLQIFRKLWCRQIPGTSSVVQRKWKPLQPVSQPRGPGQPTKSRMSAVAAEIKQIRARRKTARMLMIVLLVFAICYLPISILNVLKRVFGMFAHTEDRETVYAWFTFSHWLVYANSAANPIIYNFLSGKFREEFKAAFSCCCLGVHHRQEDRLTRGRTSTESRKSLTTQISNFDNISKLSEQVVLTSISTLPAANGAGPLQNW
Assay: Agonist activity against OX2R: intracellular calcium (Fura-2AM, FDSS7000) in CHOOX2R cells
Type: cell-based
Conditions: test compound 0.1 μM; relative to orexin-A as full agonist (100%)
Measured Response (%) OX2R, listed per entry.
Give the value in % but do not write % after it.

Challenge: Provide Response (%) OX2R, system human OX2R (Homo sapiens), entry COc1ccc(-c2cccc(C(=O)N(C)C)c2)cc1S(=O)(=O)Nc1cccc(N2CCCN(c3cccc(N(C)C)c3)C2=O)c1 [Example 134]
Response given: 101

Challenge: Provide Response (%) OX2R, system human OX2R (Homo sapiens), entry CCN(Cc1ccccc1)C(=O)c1ccc(OC)c(S(=O)(=O)Nc2cccc(NC(=O)Nc3cccc(N(C)C)c3)c2)c1 [Example 101]
Response given: 20

Challenge: Provide Response (%) OX2R, system human OX2R (Homo sapiens), entry CCN(Cc1ccccc1)C(=O)c1ccc(OC)c(S(=O)(=O)Nc2cccc(NC(=O)Nc3ccc(N(C)C)cc3)c2)c1 [Example 110]
Response given: 38
